test system: Kochia scoparia (KCHSC; Bassia scoparia); experiment: Herbicidal pre-emergence action (A), 1280 g/ha; type: in vivo; settings: visual grading after ca. 3 weeks vs untreated controls
Task for the reader: assign each of the following compounds its reported herbicidal effect KCHSC.
One number for each entry, in %.

- Cc1cc2scnc2nc1-c1sccc1Cl: 100
- Cc1cc(C)c(-c2nc3ncsc3cc2C)s1: 90
- Cc1ccsc1-c1nc2ncsc2cc1Br: 100

Please state, for each entry, its recorded herbicidal effect KCHSC.
1. Cc1cc2scnc2nc1-c1cccc(F)c1
2. Cc1cc2sc([S+](C)[O-])nc2nc1-c1ccccc1Cl (stereo not drawn)
3. CCc1cc2scnc2nc1-c1ccc(F)cc1F

# output
1: 100; 2: 100; 3: 100

Data provenance is patent US20230151025A1.
